# Subject Of Test: C217S mouse Core 2 GlcNAcT1 (Mus musculus, UniProt Q09324, C217S)
# Construct: made in house; host or cells: CHO-S or COS-7 cells, secreted, purified on anti-FLAG M1 beads
# Test Description: Effects of sulfhydryl reagents and heavy metals on enzyme activity (% activity)
# Type: biochemical
# Settings: relatively high concentrations (FIG. 1), 37° C., 2.0 hours

>  <Compound>
NC(=O)CI [Iodoacetamide]

>  <Subject Of Test>
C217S mouse Core 2 GlcNAcT1 (Mus musculus, UniProt Q09324, C217S)

>  <inhibition of enzyme activity>
not inhibited

$$$$
>  <Compound>
CCN1C(=O)C=CC1=O [N-ethylmaleimide]

>  <Subject Of Test>
C217S mouse Core 2 GlcNAcT1 (Mus musculus, UniProt Q09324, C217S)

>  <inhibition of enzyme activity>
not inhibited

$$$$
>  <Compound>
O=C(O)c1cc(SSc2ccc([N+](=O)[O-])c(C(=O)O)c2)ccc1[N+](=O)[O-]

>  <Subject Of Test>
C217S mouse Core 2 GlcNAcT1 (Mus musculus, UniProt Q09324, C217S)

>  <inhibition of enzyme activity>
not inhibited

$$$$
>  <Compound>
[Cl][Hg][Cl]

>  <Subject Of Test>
C217S mouse Core 2 GlcNAcT1 (Mus musculus, UniProt Q09324, C217S)

>  <inhibition of enzyme activity>
did not affect

$$$$
>  <Compound>
O=S(=O)([O-])[O-].[Zn+2]

>  <Subject Of Test>
C217S mouse Core 2 GlcNAcT1 (Mus musculus, UniProt Q09324, C217S)

>  <inhibition of enzyme activity>
did not affect

$$$$

---

# Subject Of Test: wild-type human Core 2 GlcNAcT1 (Homo sapiens, UniProt Q02742, I152V)
# Construct: S-tag (N, cleaved yes); made in house
# Test Description: Effects of sulfhydryl reagents and heavy metals on enzyme activity (% activity)
# Assay type: biochemical
# Settings: 37° C., 2.0 hours, concentrations listed on FIG. 2

>  <Compound>
CCN1C(=O)C=CC1=O [N-ethylmaleimide]

>  <Subject Of Test>
wild-type human Core 2 GlcNAcT1 (Homo sapiens, UniProt Q02742, I152V)

>  <inhibition of enzyme activity>
inhibition

$$$$
>  <Compound>
NC(=O)CI [Iodoacetamide]

>  <Subject Of Test>
wild-type human Core 2 GlcNAcT1 (Homo sapiens, UniProt Q02742, I152V)

>  <inhibition of enzyme activity>
inhibition

$$$$
>  <Compound>
O=S(=O)([O-])[O-].[Zn+2]

>  <Subject Of Test>
wild-type human Core 2 GlcNAcT1 (Homo sapiens, UniProt Q02742, I152V)

>  <inhibition of enzyme activity>
inhibit

$$$$
>  <Compound>
[Cl][Hg][Cl]

>  <Subject Of Test>
wild-type human Core 2 GlcNAcT1 (Homo sapiens, UniProt Q02742, I152V)

>  <inhibition of enzyme activity>
inhibit

$$$$
>  <Compound>
O=C(O)c1cc(SSc2ccc([N+](=O)[O-])c(C(=O)O)c2)ccc1[N+](=O)[O-]

>  <Subject Of Test>
wild-type human Core 2 GlcNAcT1 (Homo sapiens, UniProt Q02742, I152V)

>  <inhibition of enzyme activity>
inhibition

$$$$

---

# Subject Of Test: C217S human Core 2 GlcNAcT1 (Homo sapiens, UniProt Q02742, C217S)
# Construct: S-tag (N, cleaved yes); made in house
# Sequence (Q02742 37-428 C217S): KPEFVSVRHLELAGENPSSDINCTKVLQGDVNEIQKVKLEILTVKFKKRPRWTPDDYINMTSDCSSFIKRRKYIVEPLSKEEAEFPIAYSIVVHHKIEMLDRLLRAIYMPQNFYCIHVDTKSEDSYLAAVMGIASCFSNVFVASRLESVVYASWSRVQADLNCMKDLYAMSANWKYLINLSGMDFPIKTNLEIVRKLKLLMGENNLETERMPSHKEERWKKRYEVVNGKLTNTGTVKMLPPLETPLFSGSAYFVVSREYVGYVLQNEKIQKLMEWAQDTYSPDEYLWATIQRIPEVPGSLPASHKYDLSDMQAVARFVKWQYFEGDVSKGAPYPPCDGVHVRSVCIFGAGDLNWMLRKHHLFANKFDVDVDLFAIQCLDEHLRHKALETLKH
# Test Description: Effects of sulfhydryl reagents and heavy metals on enzyme activity (% activity)
# Type: biochemical
# Settings: relatively high concentrations (FIG. 2), 37° C., 2.0 hours

>  <Molecule>
O=C(O)c1cc(SSc2ccc([N+](=O)[O-])c(C(=O)O)c2)ccc1[N+](=O)[O-] [DTNB, 5,5′-dithiobis(2-nitrobenzoic acid)]

>  <inhibition of enzyme activity>
not inhibited

$$$$
>  <Molecule>
NC(=O)CI [Iodoacetamide]

>  <inhibition of enzyme activity>
not inhibited

$$$$
>  <Molecule>
CCN1C(=O)C=CC1=O [N-ethylmaleimide]

>  <inhibition of enzyme activity>
not inhibited

$$$$

---

# Subject Of Test: wild-type mouse Core 2 GlcNAcT1 (Mus musculus)
# Construct: made in house; host or cells: COS-7 or CHO-S cells, secreted into the culture supernatant, purified on anti-FLAG M1 beads
# Sequence (Q09324 34-428 R88W/S191T/T260A/H362D/H420R): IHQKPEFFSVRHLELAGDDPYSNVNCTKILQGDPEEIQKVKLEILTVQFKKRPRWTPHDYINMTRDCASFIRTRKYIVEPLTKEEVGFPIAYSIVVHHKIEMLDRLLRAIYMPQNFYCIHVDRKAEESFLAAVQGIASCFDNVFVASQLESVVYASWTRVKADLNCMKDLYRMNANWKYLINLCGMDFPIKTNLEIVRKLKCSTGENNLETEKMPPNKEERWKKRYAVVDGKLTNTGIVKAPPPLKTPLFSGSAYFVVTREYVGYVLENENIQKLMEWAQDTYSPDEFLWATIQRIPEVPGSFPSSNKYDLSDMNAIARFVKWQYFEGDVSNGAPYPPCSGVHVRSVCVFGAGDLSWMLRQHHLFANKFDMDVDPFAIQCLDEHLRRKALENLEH
# Test Description: Effects of sulfhydryl reagents and heavy metals on enzyme activity (% activity)
# Assay type: biochemical
# Settings: 37° C., 2.0 hours, concentrations listed on FIG. 1
Assay Readout: inhibition of enzyme activity

>  <Molecule>
[Cl][Hg][Cl] [Hg^2+, HgCl2]

>  <Assay Readout>
inhibition of enzyme activity

>  <Recorded Measurement>
inhibit

$$$$
>  <Molecule>
O=S(=O)([O-])[O-].[Zn+2] [Zn^2+, ZnSO4]

>  <Assay Readout>
inhibition of enzyme activity

>  <Recorded Measurement>
inhibit

$$$$
>  <Molecule>
CCN1C(=O)C=CC1=O [N-ethylmaleimide]

>  <Assay Readout>
inhibition of enzyme activity

>  <Recorded Measurement>
inhibition

$$$$
>  <Molecule>
O=C(O)c1cc(SSc2ccc([N+](=O)[O-])c(C(=O)O)c2)ccc1[N+](=O)[O-] [DTNB, 5,5′-dithiobis(2-nitrobenzoic acid)]

>  <Assay Readout>
inhibition of enzyme activity

>  <Recorded Measurement>
inhibition

$$$$
>  <Molecule>
NC(=O)CI [Iodoacetamide]

>  <Assay Readout>
inhibition of enzyme activity

>  <Recorded Measurement>
inhibition

$$$$

Attribution: patent US20050142574A1
